# Method: High throughput Caco-2 permeability
# Assay type: in vitro ADME
# Measurement Parameters: human, Caco-2, pH 7.4, apical to basolateral, 10 μmol/l, 2 h, 37° C.; read-out: Caco-2 permeability, A/B
For each of the compounds below, state its Papp at 2 h, 10 μmol/l.
Write the value in ×10⁻⁶ cm/s as a bare number.

Query: Output Papp at 2 h, 10 μmol/l of C=CC(=O)N(CCCNc1ccnc2ccccc12)Cc1ccc2[nH]ccc2c1
Response: 2.73

Query: Entry FC(F)(F)c1cc(-c2ccc3c(NCCCNCc4ccco4)ccnc3c2)cc(C(F)(F)F)c1 needs its Papp at 2 h, 10 μmol/l filled in; supply it.
Response: 0.326

Query: Provide only the value of recorded Papp at 2 h, 10 μmol/l for CC(C)(C)c1ccc(-c2ccc3c(NCCCNCc4ccco4)ccnc3c2)cc1
Response: 0.578

Query: Supply Papp at 2 h, 10 μmol/l value. Item: FC(F)(F)c1ccc2c(NCCCNCc3ccc4[nH]ccc4c3)ccnc2c1
Response: 11.5

Query: Tell me Papp at 2 h, 10 μmol/l reported for FC(F)(F)c1ccc2c(NCCCNCc3ccco3)ccnc2c1
Response: 50.2

Query: Please give the documented Papp at 2 h, 10 μmol/l of Cn1ccc2cc(CNCCCNc3ccnc4cc(C(F)(F)F)ccc34)ccc21
Response: 21.4

Query: Look up and report measured Papp at 2 h, 10 μmol/l for this entry: c1ccc2c(NCCCNCc3ccc4[nH]ccc4c3)ccnc2c1
Response: 8.17

Query: Tell me measured Papp at 2 h, 10 μmol/l for Clc1ccc2c(NCCCNCc3ccc4[nH]ccc4c3)ccnc2c1 please.
Response: 19.6

Query: Please give the documented Papp at 2 h, 10 μmol/l of Brc1ccc2c(NCCCNCc3ccc4[nH]ccc4c3)ccnc2c1
Response: 18.3

###

# Measurement Target: interaction between GST-MAGEA11 MHD and FAM-PCF11_4 peptide (MAGE-A11:PCF11) (Homo sapiens (Human), UniProt P43364)
# Method: TR-FRET dose response competition assay for disruption of MAGE-A11:PCF11 binding
# Measurement Parameters: Dose response TR-FRET screening of nine scaffold groups against MAGE-A11:PCF11; read-out: consensus IC50
# Source text: TR-FRET Assays and High-throughput Screen. Terbium-anti-GST antibody, 1 M Tris pH 7.5 1 M MgCl2 and 1 M DTT were purchased from Invitrogen (Carlsbad, CA), BSA was purchased from Sigma (St. Louis, MO). Dimethyl sulfoxide (DMSO) was purchased from Fisher Scientific (Pittsburgh, PA). Black 384-well low volume plates and 384-well polypropylene compound plates were purchased from Corning Incorporated (Tewksbury, MA). […]
Assignment: determine reported pIC50 for the given compounds.
The read-out pIC50 is expressed as -log10 of concentration in moles per litre.

Query: Entry CCCCCOc1ccc(N(C(C)=O)C2=C(Cl)C(=O)c3ccccc3C2=O)cc1 [SJ000032724-1] needs its pIC50 filled in; supply it.
Response: 4.55

Query: State its pIC50: CCCCn1c(=O)[nH]c(=O)c2c1nc(-c1ccc(C)c([N+](=O)[O-])c1)n2CC [SJ000378919-1]
Response: 4.16

Query: Input CCn1c2ccccc2c2cc(CN3CCCC(O)C3)ccc21 (centres unmarked) [SJ000550874-1] , output reported pIC50.
Response: 4.16

Query: Name the recorded pIC50 of the compound listed here: COc1ccc(-c2cc3ncn(CC(=O)NCc4ccc(F)cc4)c(=O)c3s2)cc1 [SJ000443969-1]
Response: 4.16

Query: Answer with the recorded pIC50 for the compound listed here: O=C1c2ccccc2NC(c2ccc(F)cc2)N1Cc1ccccc1 (centres unmarked) [SJ000026596-1]
Response: 4.16

###

# Measurement Target: interaction between GST-MAGEA11 MHD and FAM-PCF11_4 peptide (MAGE-A11:PCF11) (Homo sapiens (Human))
# Method: TR-FRET dose response competition assay for disruption of MAGE-A11:PCF11 binding
# Measurement Parameters: Dose response TR-FRET screening of nine scaffold groups against MAGE-A11:PCF11; read-out: consensus IC50
Property: pIC50
Convention used: pIC50 is expressed as -log10 of the molar concentration.

Query: Please give measured pIC50 of the following entry: FC(F)(F)c1ccc2c(NCCCNCc3cccc4c3OCO4)ccnc2c1
Response: 4.16

Query: Read the entry O=C1c2ccccc2NC(c2ccc(Cl)cc2)N1Cc1ccccc1 (centres unmarked) and write its reported pIC50.
Response: 4.16

Query: Quickly give me recorded pIC50 for CCCN1C(=O)c2ccccc2NC1c1cc(Cl)c(O)c(OC)c1 (centres unmarked)
Response: 4.16

Query: Specify pIC50 for Cc1cc(C)cc(Cc2ccc3c(NCCCNCc4cccc5c4OCO5)ccnc3c2)c1 and stop.
Response: 4.79

Query: Supply recorded pIC50 for CN(C)c1ccc(-c2nc3c(c(=O)[nH]c(=O)n3Cc3ccccc3)n2C)cc1 here.
Response: 4.16

###

# Measurement Target: interaction between GST-MAGEA11 MHD and FAM-PCF11_4 peptide (MAGE-A11:PCF11) (Homo sapiens (Human))
# Method: TR-FRET dose response competition assay for disruption of MAGE-A11:PCF11 binding
# Measurement Parameters: Dose response TR-FRET screening of nine scaffold groups against MAGE-A11:PCF11; read-out: consensus IC50
Property: pIC50
Scale: pIC50 equals -log10([C]), with [C] in mol/L.

Query: For Cc1cccc(CNCCCNc2ccnc3cc(Cl)ccc23)c1 [SJ000523066-1] , write its pIC50.
Response: 4.16

Query: Report measured pIC50; entry is FC(F)(F)c1cccc(Cc2ccc3c(NCCCNCc4cccc5c4OCO5)ccnc3c2)c1 [SJ000311300-1]
Response: 4.89

Query: Fill in reported pIC50 for this entry: CCCc1ccc(C2=C(c3ccc([N+](=O)[O-])cc3)C(=O)OC2)cc1 [SJ000368117-1]
Response: 4.16

Query: Provide pIC50 value for the following compound: NC1=C(N2CCCCC2)C(=O)c2ccccc2C1=O [SJ000294373-2]
Response: 4.70

Query: Hello, please tell me recorded pIC50 for this one: COc1ccccc1CNC(=O)Cn1cnc2cc(-c3ccccc3)sc2c1=O [SJ000452125-1]
Response: 4.16

Query: Supply recorded pIC50 for Cc1ccc(NC2=C(N)C(=O)c3ccccc3C2=O)cc1 [SJ000562618-1] here.
Response: 4.22

Query: State its pIC50: COc1ccc(-c2cc3ncn(CC(=O)NCc4ccccc4C)c(=O)c3s2)cc1 [SJ000455215-1]
Response: 4.16

Query: Specify pIC50 for O=C(O)c1cccc(NC2=C(Cl)C(=O)c3ccccc3C2=O)c1 [SJ000022282-2] and stop.
Response: 4.16

Query: Respond only with pIC50 recorded for COc1ccc(-c2cc3ncn(CC(=O)O)c(=O)c3s2)cc1 [SJ000397503-1]
Response: 4.16

###

Kindly supply the reported TR-FRET signal values for the records listed here.
# Measurement Target: MAGE-A11:PCF11 (Homo sapiens (Human), UniProt P43364)
# Sequence (P43364 218-429): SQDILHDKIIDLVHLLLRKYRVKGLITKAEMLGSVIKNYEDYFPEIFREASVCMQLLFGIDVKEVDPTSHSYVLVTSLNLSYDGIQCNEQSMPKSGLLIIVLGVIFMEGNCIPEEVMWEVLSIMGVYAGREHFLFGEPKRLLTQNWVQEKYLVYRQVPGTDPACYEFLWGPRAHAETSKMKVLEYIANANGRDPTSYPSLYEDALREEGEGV
# Method: TR-FRET single point screening at 15 μM
# Type: binding
# Design: unit not given here
# Measurement Parameters: single point TR-FRET screening of quinoline compounds against MAGE-A11:PCF11; 15 μM
Reply: number alone, nothing else.

Query: Report TR-FRET signal for CCCN(CCCNc1ccnc2cc(C(F)(F)F)ccc12)Cc1cc(Br)cs1
Response: −9.243

Query: // fetch TR-FRET signal given entry CCCN(CCCNc1ccnc2cc(Cl)ccc12)Cc1c[nH]c(C)n1
Response: 4.828

Query: Entry CCCN(CCCNc1ccnc2cc(Cl)ccc12)Cc1cc(F)cc(F)c1O needs its TR-FRET signal filled in; supply it.
Response: 15.96

Query: Please report the measured TR-FRET signal for COc1ccc(CN(CCCNc2ccnc3cc(Cl)ccc23)Cc2ccccc2)cc1F
Response: 23.65

Query: Using known records, supply TR-FRET signal for CCOC(=O)c1cnc2c(C)c(Cl)ccc2c1NCCCN1CCOCC1
Response: −23.26

Query: Fill in reported TR-FRET signal for this entry: FC(F)(F)c1ccc2c(NCCCNCC3CCOC3)ccnc2c1 (stereo not shown)
Response: 15.56

Query: Note down TR-FRET signal recorded for CCCN(CCCNc1c2ccc(Cl)cc2nc2ccc(OC)cc12)Cc1cccc(OC)c1O
Response: −81.96

Query: Look up TR-FRET signal of CCCN(CCCNc1c2ccc(Cl)cc2nc2ccc(OC)cc12)Cc1c(F)c(F)c(F)c(F)c1F and report it.
Response: −2.258

Query: Check the records and state TR-FRET signal for FC(F)(F)c1ccc2c(NCCCNCc3cc4ccccc4s3)ccnc2c1
Response: 35.63

Query: For the compound Clc1ccc2c(NCCCN(CCc3ccccc3)Cc3ccccc3)ccnc2c1 , give its measured TR-FRET signal value.
Response: 14.41

Query: Check the records and state TR-FRET signal for CCCN(CCCNc1ccnc2cc(Cl)ccc12)Cc1ccoc1
Response: 6.214

Query: State its TR-FRET signal: CCCN(CCCNc1ccnc2cc(C(F)(F)F)ccc12)CC(CC)CC
Response: 30.66

Query: Note TR-FRET signal for the compound shown: CCCN(CCCNc1ccnc2cc(C(F)(F)F)ccc12)CC1CC1
Response: 48.15

Query: Give the measured TR-FRET signal for CCOC(=O)c1cnc2c(CC)cccc2c1NCCCN1CCOCC1
Response: −4.499

Query: For the compound COc1ccc(CN(CCCNc2ccnc3cc(Cl)ccc23)Cc2ccccc2)cc1 , give its reported TR-FRET signal.
Response: 11.78

Query: Tell me measured TR-FRET signal for CCCN(CCCNc1ccnc2cc(Cl)ccc12)Cc1ccccc1N please.
Response: 15.43

Query: Provide measured TR-FRET signal value, entry: Clc1ccc2c(NCCCNCc3cncc(Br)c3)ccnc2c1
Response: 7.014

Query: For the compound COc1ccc(O)c(CN(CCCNc2ccnc3cc(Cl)ccc23)Cc2ccccc2)c1 , report TR-FRET signal.
Response: 14.17

Query: Quick one: give measured TR-FRET signal for FC(F)(F)c1ccc2c(NCCCNCc3nccs3)ccnc2c1
Response: 7.779
